System: antibodies in sera from SARS patients (sera 1a, 1b, 2, 6, 37, 62, London, SARS-yellow, SARS-green)
Type: binding, human
Measured Binding of serum 2 to looped/cyclic peptides of protein X4 of SARS-CoV Urbani by item
Readout Kind: Binding of serum 2 to looped/cyclic peptides of protein X4 of SARS-CoV Urbani

Sequence Content: KLFIRQEEVQQELYS
Result: 0.6
//
Sequence Content: FTSCELYHYQECVRG
Result: 0.6
//
Sequence Content: EPCPSGTYEGNSPFH
Result: 0.7
//
Sequence Content: VSPKLFIRQEEVQQE
Result: 0.8
//
Sequence Content: LTCTSTHFAFACADG
Result: 0.6
//
Sequence Content: RHTYQLRARSVSPKL
Result: 0.7
//
Sequence Content: ELYSPLFLIVAALVF
Result: 0.6
//
Sequence Content: FLTLIVFTSCELYHY
Result: 0.8
//
Sequence Content: ALTCTSTHFAFACAD
Result: 0.7

----------
Measured Binding of serum SARS-green to linear peptides of protein M of SARS-CoV Urbani by item
System: antibodies in sera from SARS patients (sera 1a, 1b, 2, 6, 37, 62, London, SARS-yellow, SARS-green)
Type: binding, human
Readout Kind: Binding of serum SARS-green to linear peptides of protein M of SARS-CoV Urbani

Sequence Content: ACIVGLMWLSYFVAS
Recorded Number: 0.2
--
Sequence Content: SRTLSYYKLGASQRV
Recorded Number: 0.2
--
Sequence Content: AYSNRNRFLYIIKLV
Recorded Number: 0.5
--
Sequence Content: LEQWNLVIGFLFLAW
Recorded Number: 0.3
--
Sequence Content: IGFLFLAWIMLLQFA
Recorded Number: 0.5
--
Sequence Content: MWLSYFVASFRLFAR
Recorded Number: 0.2

----------
Tested on: control sera (pooled serum of ten healthy LUMC hospital workers; commercial negative donor pooled serum from the Dutch bloodbank)
Format: binding, human
Parameters: unit not given here
Readout Kind: Binding of Control Serum Blood-Bank to Looped peptides of the protein M of SARS-CoV Urbani

Sequence Content: LWPVTLACFVLAAVY
Recorded Number: 0.6

Sequence Content: LVIGAVIIRGHLRMA
Recorded Number: 0.7

Sequence Content: WIMLLQFAYSNRNRF
Recorded Number: 0.7

Sequence Content: MACIVGLMWLSYFVA
Recorded Number: 0.4

Sequence Content: IVGLMWLSYFVASFR
Recorded Number: 0.7

Sequence Content: SNRNRFLYIIKLVFL
Recorded Number: 0.7

Sequence Content: NLVIGFLFLAWIMLL
Recorded Number: 0.6

Sequence Content: QWNLVIGFLFLAWIM
Recorded Number: 0.6

Sequence Content: MWSFNPETNILLNVP
Recorded Number: 0.8

----------
Tested on: control sera (pooled serum of ten healthy LUMC hospital workers; commercial negative donor pooled serum from the Dutch bloodbank)
Format: binding, human
Parameters: unit not given here
Measured Binding of Control serum Blood-bank to linear peptides of the protein M of SARS-CoV Urbani by item
Readout Kind: Binding of Control serum Blood-bank to linear peptides of the protein M of SARS-CoV Urbani

Sequence Content: AVYRINWVTGGIAIA
Recorded Number: 0.7

Sequence Content: ARTRSMWSFNPETNI
Recorded Number: 0.7

Sequence Content: FLWLLWPVTLACFVL
Recorded Number: 0.4

Sequence Content: MWLSYFVASFRLFAR
Recorded Number: 0.5

Sequence Content: SFNPETNILLNVPLR
Recorded Number: 0.7

Sequence Content: LEQWNLVIGFLFLAW
Recorded Number: 0.6

Sequence Content: IAIAMACIVGLMWLS
Recorded Number: 0.5

Sequence Content: PKEITVATSRTLSYY
Recorded Number: 0.5

Sequence Content: ACIVGLMWLSYFVAS
Recorded Number: 0.6
